experiment: inside-out patch clamp, G-V Boltzmann fits, 0 Ca2+; conditions: glycan lost; control: γ2 WT, untreated cells
result-type: other: BK channel gating modulation

protein	result-value
BK channel γ2 subunit (LRRC52): N112Q/N148Q (protein) parent chain: MSLASGPGPGWLLFSFGMGLVSGSKCPNNCLCQAQEVICTGKQLTEYPLDIPLNTRRLFLNENRITSLPAMHLGLLSDLVYLDCQNNRIREVMDYTFIGVFKLIYLDLSSNNLTSISPFTFSVLSNLVQLNIANNPHLLSLHKFTFANTTSLRYLDLRNTGLQTLDSAALYHLTTLETLFLSGNPWKCNCSFLDFAIFLIVFHMDPSDDLNATCVEPTELTGWPITRVGNPLRYMCITHLDHKDYIFLLLIGFCIFAAGTVAAWLTGVCAVLYQNTRHKSSEEDEDEAGTRVEVSRRIFQTQTSSVQEFPQLI	decreases
BK channel γ2 subunit (LRRC52): N148Q/N211Q (protein) parent chain: MSLASGPGPGWLLFSFGMGLVSGSKCPNNCLCQAQEVICTGKQLTEYPLDIPLNTRRLFLNENRITSLPAMHLGLLSDLVYLDCQNNRIREVMDYTFIGVFKLIYLDLSSNNLTSISPFTFSVLSNLVQLNIANNPHLLSLHKFTFANTTSLRYLDLRNTGLQTLDSAALYHLTTLETLFLSGNPWKCNCSFLDFAIFLIVFHMDPSDDLNATCVEPTELTGWPITRVGNPLRYMCITHLDHKDYIFLLLIGFCIFAAGTVAAWLTGVCAVLYQNTRHKSSEEDEDEAGTRVEVSRRIFQTQTSSVQEFPQLI	decreases
BK channel γ2 subunit (LRRC52): N211Q (protein) parent chain: MSLASGPGPGWLLFSFGMGLVSGSKCPNNCLCQAQEVICTGKQLTEYPLDIPLNTRRLFLNENRITSLPAMHLGLLSDLVYLDCQNNRIREVMDYTFIGVFKLIYLDLSSNNLTSISPFTFSVLSNLVQLNIANNPHLLSLHKFTFANTTSLRYLDLRNTGLQTLDSAALYHLTTLETLFLSGNPWKCNCSFLDFAIFLIVFHMDPSDDLNATCVEPTELTGWPITRVGNPLRYMCITHLDHKDYIFLLLIGFCIFAAGTVAAWLTGVCAVLYQNTRHKSSEEDEDEAGTRVEVSRRIFQTQTSSVQEFPQLI	decreases
